- Test system: OVCAR-8 ovarian
- EXPERIMENT: NCI tumour cell line growth inhibition, 48 h
We use 20 µM as the dividing line for TGI: on or above the line is Y, below is N.

COMPOUND	GROUP
CCNC(=O)OCC1C2=C(C(=O)C(C)=C(N)C2=O)N2CC3C(N3C)C12OC (centres undefined)	Y
C/C(=N\NC(=O)c1ccccc1N)c1ccccc1O	Y
Cc1c2cccc(Sc3ccccc3)c2c2c3c(cccc13)[S+](c1ccccc1)C2 (centres undefined)	N
C=C[C@]1(C)C[C@@H](OC(=O)CO)[C@@]2(C)[C@H](C)CC[C@]3(CCC(=O)[C@H]32)[C@@H](C)[C@@H]1O	Y
c1ccc(-c2cn3nc(N4CCOCC4)sc3n2)cc1	Y

Exam item: State whether the measured TGI reaches 20 µM, counting equality as reaching it, for `COC(=O)CCC1=C(C)C(C)=N/C1=C\c1[nH]c(-c2ccc[nH]2)cc1OC`
Marked response: N

Exam item: Identify whether the reported TGI of the following compound is 20 µM or greater: `Cc1ccc(S(=O)(=O)/N=C(\NO)Nc2ccc(Cl)c(Cl)c2)cc1`
Marked response: Y
